Test system: TK-10
Experiment: NCI tumour cell line growth inhibition, 48 h
Active and inactive are the calls of the source. Rule as the data show it: active = GI50 up to about 1.1 µM and inactive = higher. Starred links: 1 amine or outer side, 2 acyl side, 3 side chain; linkers in the order of their positions; H or OH if unused. Positions of bridges follow the written chain, without caps; N, C: chain ends. Non-standard residues stand in square brackets, D forms with d. Residues, ends and D or L forms follow the SMILES beside them. ξ: configuration not given here. X11 = CCC(C)C(N[*:1])C(O)CC(=O)O[C@H](C(=O)C(C)C(=O)[*:2])C(C)C; X10 = O=C([C@@H]1CC(O)CN1[*:1])[*:2]; NMeY = CN[C@@H](Cc1ccc(O)cc1)C(=O)O; ξNMeL = CNC(CC(C)C)C(=O)O; ξT = CC(O)C(N)C(=O)O
Form entry, call: pick from active, inactive

Below, 5 compounds whose answers are already recorded.
CC(C)(Oc1ccc2c(=O)cc(-c3ccc(Cl)cc3)oc2c1)C(=O)Nc1c(Cl)cccc1Cl ... inactive
CCC(C)C1NC(=O)C(NC(=O)C(CC(C)C)N(C)C(=O)[C@@H]2CC(O)CN2)C(C)OC(=O)[C@H](Cc2ccc(OC)cc2)N(C)C(=O)[C@@H]2CCCN2C(=O)[C@H](CC(C)C)NC(=O)C(C)C(=O)[C@H](C(C)C)OC(=O)CC1O (stereo not given in full) (H-[X10][ξNMeL][ξT][X11]LP[NMeY](Me); ester 3-C) ... active
FC(F)(F)C1(C(F)(F)F)C2CCC3(CC(F)(F)C(F)(F)S3)C1C2 (stereo not given) ... inactive
O=C1OC(c2ccc(O)cc2)(c2ccc(O)cc2)c2ccc(Cl)c3cccc1c23.O=C1OC(c2ccc(O)cc2)(c2ccc(O)cc2)c2cccc3c(Cl)ccc1c23 ... inactive
CONC(C)=O ... inactive

Here's the next entry for you.
Which outcome was assigned to C[n+]1c2ccccc2c(/C=N\NS(=O)(=O)c2ccc(Cl)cc2)c2ccccc21 in this test? inactive

---

Test system: SK-MEL-28
Test: NCI tumour cell line growth inhibition, 48 h
The source made the active and inactive calls. Rule as the data show it: active = GI50 up to about 1.1 µM and inactive = higher.
observation.type: GI50

Consider the reported GI50 for these molecules:
Cc1ccc(NC(=O)/C(=N\Nc2ccc([N+](=O)[O-])cc2[N+](=O)[O-])C2C(=O)NC(=O)NC2=O)cc1 ... > 100 µM (inactive)
C=C(Cl)C(=C)CCC(Cl)C(C)C (stereo unspecified) ... > 100 µM (inactive)
CCOc1ccc(NC(=O)C(=O)C2C(=O)Nc3ccccc3[S+]2[O-])cc1 (stereo unspecified) ... > 100 µM (inactive)

Fill in the blank: the reported GI50 of O=C(CSCC(=O)N/N=C/c1ccccc1)N/N=C\c1ccccc1 is ____. > 100 µM (inactive)

Thanks! And CCCC(=O)Oc1ccc2c(C)cc(=O)oc2c1OC(=O)CCC ? 54.2 µM (inactive)

Thanks! And CC[P+](C)(C)c1ccccc1 ? > 100 µM (inactive)

---

Here the recorded GI50 is given for each entry.
System: SNB-75
Assay: NCI tumour cell line growth inhibition, 48 h
Activity calls are given as the source filed them. Rule as the data show it: active = GI50 up to about 1.1 µM and inactive = higher.

O=c1c([Se]c2coc3ccccc3c2=O)coc2ccccc12 ... 15.6 µM (inactive)

Fill in the blank: the reported GI50 of CC1=CC(=O)NCCN1C is ____. > 100 µM (inactive)

Thanks! And O=c1[nH]c2cc(C(F)(F)F)ccc2nc1C(F)(F)F ? 30.2 µM (inactive)

Thanks! And CN=S(=O)(C[C@]1(O)CC2OC1C1OC(C)(C)OC21)c1ccccc1 (stereo partly specified) ? 83 µM (inactive)

Thanks! And O=C1/C(=N/N=C(c2ccccc2)c2ccccc2)c2ccccc2-c2ccccc21 ? > 100 µM (inactive)

Thanks! And N#CCC(=O)N/N=C1\C(=O)N(c2ccc(Cl)cc2)C(=O)C(=O)C1c1nc2ccccc2o1 (stereo unspecified) ? > 100 µM (inactive)
